Reference for the values: PubChem BioAssay (NCI)

Assignment: determine reported TGI for the given compounds.
System: COLO 205 colon
TEST PROTOCOL: NCI tumour cell line growth inhibition, 48 h

input: Param item = COc1ccc(OC)c(CC(C)N)c1 (configuration not stated) ; retrieve measured TGI.
output: > 100 µM

input: Param item = CC(=O)N1CC(=O)N2C(=O)/C(=C/c3ccc(Cl)cc3)N=C12 ; retrieve measured TGI.
output: > 100 µM

input: Param item = CSCCOC(=O)C(=[N+]=[N-])c1ccc([N+](=O)[O-])cc1 ; retrieve measured TGI.
output: > 100 µM

input: Param item = S=c1nc(Cl)cc2[nH]c(Cl)cn12 ; retrieve measured TGI.
output: 8.08 µM

input: Param item = O=c1oc(=O)c2oc3ccccc3oc1=2 ; retrieve measured TGI.
output: > 100 µM

input: Param item = O=c1c2ccccc2c2ccccc2c(=O)n1Cc1ccc2c(c1)OCO2 ; retrieve measured TGI.
output: > 100 µM

input: Param item = CC(C)=CCN1c2ccc(Cl)cc2NC(=O)CC1C (configuration not stated) ; retrieve measured TGI.
output: 56.9 µM

input: Param item = SC1CCCN(Cc2ccccc2)C1 (configuration not stated) ; retrieve measured TGI.
output: 33.7 µM

input: Param item = O=C(Nc1ccc(Cl)c(Cl)c1)N1N=C2c3ccccc3CCC2C1c1ccc(Cl)cc1 (configuration not stated) ; retrieve measured TGI.
output: > 100 µM

input: Param item = O=c1c2cc([N+](=O)[O-])ccc2n2n1CCCC2 ; retrieve measured TGI.
output: > 100 µM

input: Param item = Br/C(=N\Nc1nn[nH]n1)c1ccncc1 ; retrieve measured TGI.
output: > 100 µM

input: Param item = N#CS.N=C=S.N=C=S.[Cu+2].[NH2-].[NH2-].[NH2-].[NH2-].c1ccc2ncccc2c1 ; retrieve measured TGI.
output: > 100 µM

###

Test system: NCI-H522 lung
TEST PROTOCOL: NCI tumour cell line growth inhibition, 48 h
Assignment: determine reported TGI for the given compounds.
Give a bare numeral; the unit µM is implied.

input: Param item = CCCCC(=O)OC[n+]1ccc2c(C)c3[nH]c4ccccc4c3c(C)c2c1 ; retrieve measured TGI.
output: 2.33

input: Param item = NS(=O)(=O)c1ccc(Nc2c3ccccc3nc3c(C(=O)NCCO)cccc23)cc1 ; retrieve measured TGI.
output: 0.272

###

System: DU-145 prostate
TEST PROTOCOL: NCI tumour cell line growth inhibition, 48 h
QUANTITY: TGI

input: Param item = CSc1nc(SC)c2ncn(C3CC(Oc4ccc(C)cc4)C(COc4ccc(C)cc4)O3)c2n1 (stereo unspecified) ; retrieve measured TGI.
output: > 100 µM

input: Param item = C=CCSSCC=C ; retrieve measured TGI.
output: > 100 µM

input: Param item = Cc1cc(Oc2ccc3nc(COc4ccc(CC5SC(=O)NC5=O)cc4)n(C)c3c2)cc(C)c1N (stereo unspecified) ; retrieve measured TGI.
output: > 100 µM

input: Param item = Cc1ccc(NC2=N/C(=C/c3ccccc3)C(Cl)=N2)cc1 ; retrieve measured TGI.
output: > 100 µM

input: Param item = CN(CC(=O)O)c1ncc2c(n1)-c1ccccc1OC2 ; retrieve measured TGI.
output: > 100 µM

input: Param item = CC(=O)NNC(=O)C1CCCCN1 (stereo unspecified) ; retrieve measured TGI.
output: > 100 µM

input: Param item = CCN(CC)CCCC(C)N=c1cc(Nc2cc(=NC(C)CCCN(CC)CC)c3cc(OC)ccc3o2)oc2ccc(OC)cc12 (stereo unspecified) ; retrieve measured TGI.
output: 3.19 µM

input: Param item = Cn1/c(=N\N=C(\CNCCO)[C@@H](O)[C@@H]2OC(c3ccccc3)OC[C@H]2O)sc2ccccc21 (stereo partly specified) ; retrieve measured TGI.
output: 35.1 µM

input: Param item = C=CN(C)S(C)(=O)=O ; retrieve measured TGI.
output: > 100 µM

input: Param item = NC1=NCCN1CC(=O)O ; retrieve measured TGI.
output: > 10000 µM

input: Param item = Nc1c(C(=O)c2ccc(CCCN3CCOCC3)cc2)cnn1-c1ccc(F)cc1 ; retrieve measured TGI.
output: > 25 µM

input: Param item = C=C(CN1CCN(c2cccc(C(F)(F)F)n2)CC1)c1ccc(C(=S)Nc2ccccc2N)cc1 ; retrieve measured TGI.
output: > 100 µM

input: Param item = S=c1nc(Cl)cc2[nH]c(Cl)cn12 ; retrieve measured TGI.
output: > 100 µM

input: Param item = CCCCCCCCCCCCOC1C(C(CC(=O)N2CCN(c3cccc(C(F)(F)F)c3)CC2)NS(=O)(=O)c2cc(Cl)cc(Cl)c2)OC2OC(C)(C)OC21 (stereo unspecified) ; retrieve measured TGI.
output: > 100 µM

input: Param item = CN1CCN(CCCCN2c3ccccc3Sc3cc(N=[N+]=[N-])ccc32)CC1 ; retrieve measured TGI.
output: 15.1 µM

input: Param item = CC(=O)[C@@]1(O)[C@H](C)C[C@H]2[C@@H]3C=C(C)C4=Cc5c(cnn5-c5ccccc5)C[C@]4(C)[C@H]3[C@@H](O)C[C@@]21C ; retrieve measured TGI.
output: 14 µM

input: Param item = COC1O[C@H]2[C@H]3[C@@H]1[C@@H](OS(=O)(=O)c1ccc(C)cc1)C(=O)N3C[C@H]2O (stereo partly specified) ; retrieve measured TGI.
output: > 100 µM

input: Param item = C/C(=N\NC(=S)N(C)CCN(C)C(=S)N/N=C(\C)c1ccccn1)c1ccccn1 ; retrieve measured TGI.
output: 13.1 µM

input: Param item = CCS(=O)(=O)Nc1cccc(Nc2c3cccc(C)c3nc3c(C)cccc23)c1OC ; retrieve measured TGI.
output: 14.1 µM

input: Param item = Clc1cc(Br)c2c3c(c(Br)cc(Cl)c13)C(Br)=C2Br ; retrieve measured TGI.
output: 90.9 µM

input: Param item = O=C(/C(=C/c1ccc([N+](=O)[O-])cc1)SCc1ccc(F)cc1)c1ccc(Cl)cc1 ; retrieve measured TGI.
output: > 100 µM

input: Param item = Cc1ccc(C)c2c1CC(Cc1ccccc1C(=O)O)C2=O (stereo unspecified) ; retrieve measured TGI.
output: > 100 µM

input: Param item = COc1cc(N(Cc2ccc3nc(OC)c(OC)nc3c2)Cc2ccc3nc(OC)c(OC)nc3c2)cc(OC)c1OC ; retrieve measured TGI.
output: > 50 µM

input: Param item = CNc1nnc(CNc2ccc(-c3nnc(NC)n3N)cc2)n1N ; retrieve measured TGI.
output: > 100 µM

input: Param item = CC(=O)N1CC(=O)N2C(=O)/C(=C/c3ccc(Cl)cc3)N=C12 ; retrieve measured TGI.
output: > 100 µM

input: Param item = O=c1[nH]c(=O)n(C2CC(O)C(CO)O2)cc1OCC1CCCCC1 (stereo unspecified) ; retrieve measured TGI.
output: > 100 µM

input: Param item = O=S(=O)(c1ccccc1)C1(CCC2OCCO2)C=CC2(CC1)OCCO2 (stereo unspecified) ; retrieve measured TGI.
output: > 100 µM

input: Param item = CC1(C)CCC(C)(C)c2c1ccc(O)c2Cc1c(O)ccc2c1C(C)(C)CCC2(C)C ; retrieve measured TGI.
output: 5.45 µM

input: Param item = COc1cc(OC)c(NC(=O)c2cc3ccccc3cc2O)cc1Cl ; retrieve measured TGI.
output: 38.2 µM

input: Param item = CC(O)C1(CNc2cc(Cl)nc(N)n2)CC(CCc2ccccc2)C1 (stereo unspecified) ; retrieve measured TGI.
output: 35.9 µM

input: Param item = Nc1ncnc2c1ncn2[C@H]1CC[C@@H](NO)C1 ; retrieve measured TGI.
output: > 100 µM

input: Param item = O=C1CCCC2C3CC(CN12)C1CCCCN1C3 (stereo unspecified) ; retrieve measured TGI.
output: > 100 µM

input: Param item = NS(=O)(=O)c1ccc(Nc2c3ccccc3nc3c(C(=O)NCCO)cccc23)cc1 ; retrieve measured TGI.
output: 0.586 µM

input: Param item = CCOC(=O)C(NCc1cccc(C(F)(F)F)c1)(NC(=O)CC)C(F)(F)F (stereo unspecified) ; retrieve measured TGI.
output: > 100 µM

input: Param item = C[C@H](CCCNCCCNCCCN)[C@H]1CC[C@H]2[C@@H]3[C@H](OCCCN)C[C@H]4C[C@H](OCCCN)CC[C@]4(C)[C@H]3C[C@H](OCCCN)[C@]12C ; retrieve measured TGI.
output: 21.3 µM

input: Param item = Cc1ccc(-c2nc(N3CCCNCC3)c3oc(-c4ccccc4)nc3n2)cc1 ; retrieve measured TGI.
output: 3.4 µM

input: Param item = CN(C)CCCNC(=O)c1cncnc1Nc1ccc(OCc2cccc(F)c2)c(Cl)c1 ; retrieve measured TGI.
output: 3.2 µM

input: Param item = CCCCC(=O)OC[n+]1ccc2c(C)c3[nH]c4ccccc4c3c(C)c2c1 ; retrieve measured TGI.
output: 2.73 µM

input: Param item = COC(=O)Nc1nc2ccc(NC(=O)c3cccs3)cc2[nH]1 ; retrieve measured TGI.
output: > 100 µM

input: Param item = CCOP(=O)(OCC)[C@H]1OC(C)(C)O[C@@H]1CO ; retrieve measured TGI.
output: > 100 µM

input: Param item = CN(C)CCCCN1c2ccccc2Sc2ccc(C(=O)c3ccccc3)cc21 ; retrieve measured TGI.
output: 10.7 µM
